biological target: mouse TRPM3a2 (mTRPM3) ion channel (Mus musculus, UniProt J9SQF3); construct: expressed in transfected cells; host or cells: flip-in HEK293; assay: TRPM3 ion channel driven Ca2+ uptake, Fluo-4 AM assay (PS-stimulated, overexpressing flip-in HEK293 cells); assay type: cell-based; conditions: PS (50 μM) stimulated, cpd 001-199
Sequence (J9SQF3 1-1709 isoform J9SQF3-12): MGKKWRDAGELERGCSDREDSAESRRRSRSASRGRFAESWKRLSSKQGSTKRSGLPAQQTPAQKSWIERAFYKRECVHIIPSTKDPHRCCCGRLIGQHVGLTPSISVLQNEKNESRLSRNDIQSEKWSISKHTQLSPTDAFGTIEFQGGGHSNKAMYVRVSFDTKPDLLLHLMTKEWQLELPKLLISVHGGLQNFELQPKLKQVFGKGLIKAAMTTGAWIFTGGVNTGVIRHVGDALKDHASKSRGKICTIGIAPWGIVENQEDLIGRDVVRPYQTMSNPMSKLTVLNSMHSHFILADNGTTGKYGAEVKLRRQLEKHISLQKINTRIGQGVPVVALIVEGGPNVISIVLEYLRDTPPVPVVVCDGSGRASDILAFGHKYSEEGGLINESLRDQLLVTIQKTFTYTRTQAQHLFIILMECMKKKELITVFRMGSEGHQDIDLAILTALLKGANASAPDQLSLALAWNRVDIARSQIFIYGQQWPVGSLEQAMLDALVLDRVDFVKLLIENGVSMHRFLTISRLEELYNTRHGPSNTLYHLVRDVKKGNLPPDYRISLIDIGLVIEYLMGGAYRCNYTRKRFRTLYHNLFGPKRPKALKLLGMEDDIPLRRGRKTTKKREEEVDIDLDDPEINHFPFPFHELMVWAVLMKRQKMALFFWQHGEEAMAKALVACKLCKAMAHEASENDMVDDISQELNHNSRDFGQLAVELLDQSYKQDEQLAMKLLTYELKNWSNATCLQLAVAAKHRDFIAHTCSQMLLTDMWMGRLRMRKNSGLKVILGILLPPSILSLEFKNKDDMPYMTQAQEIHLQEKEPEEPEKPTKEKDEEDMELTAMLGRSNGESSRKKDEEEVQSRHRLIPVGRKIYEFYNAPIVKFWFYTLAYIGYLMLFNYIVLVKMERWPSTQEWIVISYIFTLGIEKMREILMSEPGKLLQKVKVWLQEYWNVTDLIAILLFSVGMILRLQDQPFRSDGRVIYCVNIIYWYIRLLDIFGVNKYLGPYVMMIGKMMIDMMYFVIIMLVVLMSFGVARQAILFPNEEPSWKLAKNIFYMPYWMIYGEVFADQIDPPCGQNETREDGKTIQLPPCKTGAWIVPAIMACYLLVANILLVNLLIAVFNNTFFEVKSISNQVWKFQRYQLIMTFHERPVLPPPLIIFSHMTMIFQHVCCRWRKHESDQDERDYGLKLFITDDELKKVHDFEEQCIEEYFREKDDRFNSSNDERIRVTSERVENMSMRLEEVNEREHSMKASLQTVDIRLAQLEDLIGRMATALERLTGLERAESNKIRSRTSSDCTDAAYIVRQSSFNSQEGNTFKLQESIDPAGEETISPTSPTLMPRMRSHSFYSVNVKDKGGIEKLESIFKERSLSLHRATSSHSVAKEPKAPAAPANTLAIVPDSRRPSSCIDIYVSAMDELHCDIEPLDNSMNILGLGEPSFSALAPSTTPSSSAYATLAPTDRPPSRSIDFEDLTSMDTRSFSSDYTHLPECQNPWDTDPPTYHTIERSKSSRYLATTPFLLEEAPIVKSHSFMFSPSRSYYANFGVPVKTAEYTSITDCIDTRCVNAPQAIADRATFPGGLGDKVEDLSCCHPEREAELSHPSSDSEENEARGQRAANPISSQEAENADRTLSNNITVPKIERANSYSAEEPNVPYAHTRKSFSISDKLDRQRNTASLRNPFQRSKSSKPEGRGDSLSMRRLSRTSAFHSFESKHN
A collection of molecules and their measured IC50

Recorded IC50, per entry:
[[record]]
molecule = "Cc1oc2ccc(OCc3nccs3)cc2c1C(=O)NC1CCN(C(=O)OC(C)(C)C)CC1(F)F (stereo not shown)"
measured_on = "mouse TRPM3a2 (mTRPM3) ion channel (Mus musculus, UniProt J9SQF3)"
result = "1000 to 20000 nM"

[[record]]
molecule = "Cc1cc2oc(C)c(C(=O)NC3(CO)CCOCC3)c2cc1OCc1scnc1C"
measured_on = "mouse TRPM3a2 (mTRPM3) ion channel (Mus musculus, UniProt J9SQF3)"
result = "1000 to 20000 nM"

[[record]]
molecule = "Cc1cccnc1COc1ccc2oc(C)c(C(=O)NC3CCNCC3(F)F)c2c1 (stereo not shown)"
measured_on = "mouse TRPM3a2 (mTRPM3) ion channel (Mus musculus, UniProt J9SQF3)"
result = "1000 to 20000 nM"


q: Retrieve IC50 on mouse TRPM3a2 (mTRPM3) ion channel (Mus musculus, UniProt J9SQF3); query Cc1oc2ccc(OCc3cccnc3C(F)(F)F)cc2c1C(=O)NC1CCN(C)CC1(F)F (single isomer, unassigned)
a: ≤ 1000 nM

q: Retrieve IC50 on mouse TRPM3a2 (mTRPM3) ion channel (Mus musculus, UniProt J9SQF3); query Cc1oc2ccc(OCc3ccc4nccn4c3)cc2c1C(=O)NC1CCN(C(=O)OC(C)(C)C)CC1(F)F (stereo not shown)
a: 1000 to 20000 nM

q: Retrieve IC50 on mouse TRPM3a2 (mTRPM3) ion channel (Mus musculus, UniProt J9SQF3); query Cc1oc2ccc(OCc3cccnc3C(F)(F)F)cc2c1C(=O)NC1CN(C)CCC1(F)F (single isomer, unassigned)
a: ≤ 1000 nM

q: Retrieve IC50 on mouse TRPM3a2 (mTRPM3) ion channel (Mus musculus, UniProt J9SQF3); query COc1ncccc1COc1ccc2oc(C)c(C(=O)NC3CCN(C(=O)OC(C)(C)C)CC3(F)F)c2c1 (stereo not shown)
a: 1000 to 20000 nM

q: Retrieve IC50 on mouse TRPM3a2 (mTRPM3) ion channel (Mus musculus, UniProt J9SQF3); query Cc1ccncc1COc1ccc2oc(C)c(C(=O)O)c2c1
a: 1000 to 20000 nM

q: Retrieve IC50 on mouse TRPM3a2 (mTRPM3) ion channel (Mus musculus, UniProt J9SQF3); query Cc1oc2ccc(OCc3ccc(C(F)(F)F)nc3)cc2c1C(=O)NC1CCNC1=O (stereo not shown)
a: 1000 to 20000 nM

q: Retrieve IC50 on mouse TRPM3a2 (mTRPM3) ion channel (Mus musculus, UniProt J9SQF3); query Cc1oc2ccc(OCc3ncccc3C(F)(F)F)cc2c1C(=O)NC1CCNCC1(F)F (stereo not shown)
a: 1000 to 20000 nM

q: Retrieve IC50 on mouse TRPM3a2 (mTRPM3) ion channel (Mus musculus, UniProt J9SQF3); query Cc1ncsc1COc1ccc2oc(C)c(C(=O)NC3CC(=O)N(CCO)C3)c2c1 (single isomer, unassigned)
a: 1000 to 20000 nM

q: Retrieve IC50 on mouse TRPM3a2 (mTRPM3) ion channel (Mus musculus, UniProt J9SQF3); query Cc1ncsc1COc1cc(C#N)c2oc(C)c(C(=O)NC3(CO)CCOCC3)c2c1
a: 1000 to 20000 nM

q: Retrieve IC50 on mouse TRPM3a2 (mTRPM3) ion channel (Mus musculus, UniProt J9SQF3); query Cc1oc2ccc(OCc3cccnc3)cc2c1C(=O)O
a: 1000 to 20000 nM

q: Retrieve IC50 on mouse TRPM3a2 (mTRPM3) ion channel (Mus musculus, UniProt J9SQF3); query Cc1ncsc1COc1ccc2oc(C)c(C(=O)NC3CN(C)CC(F)(F)C3)c2c1 (single isomer, unassigned)
a: ≤ 1000 nM

q: Retrieve IC50 on mouse TRPM3a2 (mTRPM3) ion channel (Mus musculus, UniProt J9SQF3); query Cc1ncsc1COc1ccc2oc(C)c(C(=O)NC3CN(C)CCC3(F)F)c2c1 (single isomer, unassigned)
a: ≤ 1000 nM

q: Retrieve IC50 on mouse TRPM3a2 (mTRPM3) ion channel (Mus musculus, UniProt J9SQF3); query Cc1oc2ccc(OCc3cccnc3C(F)(F)F)cc2c1C(=O)O
a: 1000 to 20000 nM

* * *

molecular target: mouse TRPM3a2 (mTRPM3) ion channel (Mus musculus); construct: expressed in transfected cells; host or cells: flip-in HEK293; experiment: TRPM3 ion channel driven Ca2+ uptake, Fluo-4 AM assay (PS-stimulated, overexpressing flip-in HEK293 cells); format: cell-based; conditions: PS (50 μM) stimulated, cpds. 500-599
pIC50: −log10 of the molar value.
A collection of molecules and their measured pIC50

[[record]]
molecule = "Cc1ncsc1COc1ccc2oc(C)c(C(=O)N(C)C3(C#N)COC3)c2c1 [compound 599]"
measured_on = "mouse TRPM3a2 (mTRPM3) ion channel (Mus musculus)"
assay_readout = "pIC50"
result = "4.70 to 6.00"

[[record]]
molecule = "Cc1ccc(COc2ccc3oc(C)c(C(=O)NC4(C(N)=O)CCOC4)c3c2)cn1 (single isomer, unassigned) [594 - En 2]"
measured_on = "mouse TRPM3a2 (mTRPM3) ion channel (Mus musculus)"
assay_readout = "pIC50"
result = "≥ 6.00"

[[record]]
molecule = "Cc1ncc(COc2ccc3oc(C)c(C(=O)NC4(C(N)=O)CCOC4)c3c2)s1 (single isomer, unassigned) [592 - En 1]"
measured_on = "mouse TRPM3a2 (mTRPM3) ion channel (Mus musculus)"
assay_readout = "pIC50"
result = "≥ 6.00"


q: In one line, give reported pIC50 of the entry Cc1oc2ccc(OCc3c(F)cnn3C)cc2c1C(=O)NC1(C(N)=O)CCOC1 (single isomer, unassigned) [598 - En 1] .
a: ≥ 6.00

* * *

target: mouse TRPM3a2 (mTRPM3) ion channel (Mus musculus, UniProt J9SQF3); construct: expressed in transfected cells; host or cells: flip-in HEK293; experiment: TRPM3 ion channel driven Ca2+ uptake, Fluo-4 AM assay (PS-stimulated, overexpressing flip-in HEK293 cells); type: cell-based; settings: PS (50 μM) stimulated, cpds. 500-599
assay readout: IC50

Recorded IC50, per entry:
[[record]]
molecule = "Cc1ncc(COc2ccc3oc(C)c(C(=O)NC4(C(N)=O)CCCOC4)c3c2)s1 (single isomer, unassigned)"
result = "≤ 1000 nM"

[[record]]
molecule = "Cc1ccc(COc2ccc3oc(C)c(C(=O)NC4(CO)CCCNC4=O)c3c2)cn1 (single isomer, unassigned)"
result = "≤ 1000 nM"


q: In one line, give reported IC50 of the entry Cc1oc2ccc(OCc3ccccn3)cc2c1C(=O)NC1(CO)CCNC1=O (single isomer, unassigned) [520 - En 2] .
a: ≤ 1000 nM

q: In one line, give reported IC50 of the entry Cc1ncc(COc2ccc3oc(C)c(C(=O)NC4(CO)CCCNC4=O)c3c2)o1 (single isomer, unassigned) [511 - En 1] .
a: ≤ 1000 nM

q: In one line, give reported IC50 of the entry Cc1ncc(COc2ccc3oc(C)c(C(=O)NC4(CO)CCCNC4=O)c3c2)o1 (single isomer, unassigned) [511 - En 2] .
a: 1000 to 20000 nM

q: In one line, give reported IC50 of the entry Cc1ncccc1COc1ccc2oc(C)c(C(=O)NC3(CO)CCCNC3=O)c2c1 (single isomer, unassigned) .
a: ≤ 1000 nM

q: In one line, give reported IC50 of the entry Cc1ncccc1COc1ccc2oc(C)c(C(=O)NC3(CO)CCNC3=O)c2c1 (single isomer, unassigned) .
a: ≤ 1000 nM

* * *

molecular target: mouse TRPM3a2 (mTRPM3) ion channel (Mus musculus, UniProt J9SQF3); construct: expressed in transfected cells; host or cells: flip-in HEK293; assay: TRPM3 ion channel driven Ca2+ uptake, Fluo-4 AM assay (PS-stimulated, overexpressing flip-in HEK293 cells); format: cell-based; conditions: PS (50 μM) stimulated, cpd 001-199
assay readout: IC50

Recorded IC50, per entry:
[[record]]
molecule = "Cc1oc2ccc(OCc3cnccn3)cc2c1C(=O)NC1CCNC1=O (stereo not shown)"
assay_readout = "IC50"
result = "1 to 20 µM"

[[record]]
molecule = "COc1cccc(COc2ccc3oc(C)c(C(=O)NC4CCN(C(=O)OC(C)(C)C)CC4(F)F)c3c2)n1 (stereo not shown)"
assay_readout = "IC50"
result = "1 to 20 µM"

[[record]]
molecule = "Cc1ccc(COc2ccc3oc(C)c(C(=O)NC4CCNC4=O)c3c2)c(C)n1 (stereo not shown)"
assay_readout = "IC50"
result = "1 to 20 µM"


Moving on to another molecule below.
q: In one line, give reported IC50 of the entry Cc1oc2ccc(OCc3cccnc3C(F)(F)F)cc2c1C(=O)NC1CN(CCO)CC1(F)F (single isomer, unassigned) [134 - En 2] .
a: ≤ 1 µM
